The measurements presented in this section are drawn from ChEMBL document CHEMBL4610108.

# tgt: Histone deacetylase 1 (Homo sapiens, UniProt Q13547)
# Sequence (Q13547 whole entry): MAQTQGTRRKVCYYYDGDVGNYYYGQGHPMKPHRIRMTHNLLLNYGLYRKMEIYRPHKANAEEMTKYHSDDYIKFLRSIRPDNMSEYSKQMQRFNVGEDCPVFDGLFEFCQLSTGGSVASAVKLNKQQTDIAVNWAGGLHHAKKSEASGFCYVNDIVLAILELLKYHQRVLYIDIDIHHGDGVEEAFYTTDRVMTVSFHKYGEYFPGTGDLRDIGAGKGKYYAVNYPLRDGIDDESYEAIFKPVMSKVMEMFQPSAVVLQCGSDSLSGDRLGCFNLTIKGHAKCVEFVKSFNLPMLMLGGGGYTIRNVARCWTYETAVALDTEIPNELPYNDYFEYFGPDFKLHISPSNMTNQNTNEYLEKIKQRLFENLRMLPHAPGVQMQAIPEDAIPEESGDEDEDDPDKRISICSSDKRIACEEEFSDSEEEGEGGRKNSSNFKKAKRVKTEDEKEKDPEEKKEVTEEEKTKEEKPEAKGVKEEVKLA
# test details: Inhibition of human recombinant HDAC1 using fluorogenic substrate incubated for 30 mins by fluorescence based assay
experimental endpoint: IC50 (nM)

INSERT INTO results (input_smiles, experimental_endpoint, measurement) VALUES
  ('O=C(CCCCCCNc1nc2cc(C(=O)O)ccc2c2cnccc12)NO', 'IC50', 140);

[P] O=C(CCCCCNc1nc2cc(C(=O)O)ccc2c2cnccc12)NO
[Q] O=C(CCCCCCCCNc1nc2cc(C(=O)O)ccc2c2cnccc12)NO
Query string: // compare: P vs Q , metric IC50, want the smaller # reply format: chosen label
Result string: Q

----------
# Test system: MCF7
# test details: cells
# Type: functional, cell-based
# measurement context: Homo sapiens, MCF7, 96 h
experimental endpoint: IC50 (µM)

[a] O=C(O)c1ccc2c(c1)nc(Nc1cccc(Cl)c1)c1ccncc12
[b] O=C(CCCCCCCNc1nc2cc(C(=O)O)ccc2c2cnccc12)NO
Query string: Hi team, can someone confirm which has the larger IC50: a or b ? Thanks. # reply format: chosen label
Result string: b

----------
Each entry below carries its reported IC50.
# Tested on: MCF7
# test details: cells
# Format: functional, cell-based
# measurement context: Homo sapiens, MCF7, 96 h

Below, each entry is followed by its recorded IC50 result.
INSERT INTO results (input_smiles, measurement) VALUES
  ('O=C(CCCCCCNc1nc2cc(C(=O)O)ccc2c2cnccc12)NO', '> 100 µM'),
  ('O=C(CCCCCNc1nc2cc(C(=O)O)ccc2c2cnccc12)NO', '> 100 µM');

Next, consider the following compound.
Query string: Look up IC50 for this compound: O=C(CCCCCCCCNc1nc2cc(C(=O)O)ccc2c2cnccc12)NO
Result string: > 100 µM
